# systemTested: recombinant human IL-5 (human, UniProt P05113 20-134)
# assayExplanation: Biacore SPR, Ab supernatant on Protein A chip
reportedEndpoint: pKd
In plain terms, pKd is the concentration in mol/L turned into minus its base-10 logarithm.

Use these answered entries as a reference point.
binder	pKd
3A5.490 (antibody, human IgG4 S228P, lambda, name in Kabat numbering, V domains shown) VH: QVQLQESGPGLVKPSQTLSLTCTVSGGSISNGGYYWSWIRQHPGKGLEWIGYIYYSGSTYYNPSLKSRVTISVDTSKNQFSLKLSSVTAADTAVYYCAALGNWFDYWGQGTLVTVSS VL: SYVLTQPPSVSVAPGQTARITCGGNNIGSKNVYWYQQKPGQAPVLVVHDDSDRPSGIPERFSGSNSGNTATLTISRVEVGDEADYSCQVWDSSSDHVVFGGGTKLTVLG	9.89
3A5.496 (antibody, human IgG4 S228P, lambda, name in Kabat numbering, V domains shown) VH: QVQLQESGPGLVKPSQTLSLTCTVSGGSISNGGYYWSWIRQHPGKGLEWIGYIYYSGSTYYNPSLKSRVTISVDTSKNQFSLKLSSVTAADTAVYYCAHLGNWFDYWGQGTLVTVSS VL: SYVLTQPPSVSVAPGQTARITCGGNNIGSKNVYWYQQKPGQAPVLVVHDDSDRPSGIPERFSGSNSGNTATLTISRVEVGDEADYSCQVWDSSSDHVVFGGGTKLTVLG	8.68

Task item: // fetch pKd given entry 3A5.491 (antibody, human IgG4 S228P, lambda, name in Kabat numbering, V domains shown) VH: QVQLQESGPGLVKPSQTLSLTCTVSGGSISNGGYYWSWIRQHPGKGLEWIGYIYYSGSTYYNPSLKSRVTISVDTSKNQFSLKLSSVTAADTAVYYCALLGNWFDYWGQGTLVTVSS VL: SYVLTQPPSVSVAPGQTARITCGGNNIGSKNVYWYQQKPGQAPVLVVHDDSDRPSGIPERFSGSNSGNTATLTISRVEVGDEADYSCQVWDSSSDHVVFGGGTKLTVLG
Reply: 8.82
